- Experimental Protocol: Tanguay_ZF_120hpf_CFIN_legacy: (Legacy) Oregon State University Tanguay Lab 120 Hour Post-fertilization zebrafish Assay for Caudal Fin Malformation (AID 2283649)
Records with an inconclusive call do not appear. Activity calls are given as the source filed them. The calls were made as follows: active = hit-call score of the fitted dose curve at least 0.9, where 1 is the maximum; inconclusive = response in the unintended direction; inactive = score below 0.9.
Reported Metric: outcome

In [3]: df
Out[3]:
                               input_smiles     value
0  C=C(C)C(=O)[O][Sn]([CH2]CCC)([CH2]CCC)[CH2]CCC  inactive
1                                Cc1ccccc1N  inactive
2                                  CN(C)N=O  inactive
3                                   NC(=O)O  inactive
4  C[C@@H]1C[C@@H]([C@H](O)CC2CC(=O)NC(=O)C2)C(=O)[C@@H](C)C1  inactive
5                      CC(C)(C)c1cc(O)ccc1O  inactive
6                   CC(=O)[O][Hg][c]1ccccc1  inactive

Consider the record given below.
Note outcome for the compound shown: CC(C)(OO)c1ccccc1
inactive

###

- Target Or Test System: Luciferin 4-monooxygenase (Photinus pyralis) (UniProt P08659)
- Sequence (P08659 whole entry, looked up): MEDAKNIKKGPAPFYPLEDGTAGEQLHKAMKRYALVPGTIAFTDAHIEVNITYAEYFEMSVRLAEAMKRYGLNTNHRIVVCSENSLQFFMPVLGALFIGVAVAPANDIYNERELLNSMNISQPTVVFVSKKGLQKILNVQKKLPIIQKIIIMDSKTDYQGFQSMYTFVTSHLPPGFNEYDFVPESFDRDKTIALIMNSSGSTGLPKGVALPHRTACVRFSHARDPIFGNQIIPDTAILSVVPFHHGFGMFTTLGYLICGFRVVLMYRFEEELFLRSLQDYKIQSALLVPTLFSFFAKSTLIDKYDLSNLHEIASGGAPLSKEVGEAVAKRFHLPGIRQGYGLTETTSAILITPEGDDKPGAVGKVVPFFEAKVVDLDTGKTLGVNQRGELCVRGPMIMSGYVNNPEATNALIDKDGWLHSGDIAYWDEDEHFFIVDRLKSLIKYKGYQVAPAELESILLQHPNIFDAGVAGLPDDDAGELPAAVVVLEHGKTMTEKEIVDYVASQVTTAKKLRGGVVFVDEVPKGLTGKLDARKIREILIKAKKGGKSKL
- Experimental Protocol: CCTE_Simmons_QuantiLum_inhib_2: CCTE's Firefly Luciferase Inhibition Assay, Simmons Lab (AID 2283767)
Results filed as inconclusive are left out. Activity calls are given as the source filed them. How the source made its calls: active means hit-call score of the fitted dose curve at least 0.9, where 1 is the maximum; inconclusive means response in the unintended direction; inactive means score below 0.9.
Answer with one of the outcomes given here: 1.0 for active, 0.0 for inactive

                               input_smiles  label
0             CCOP(=S)(OCC)SCSP(=S)(OCC)OCC    0.0
1               CC(C)(C)CC(C)(C)c1ccc(O)cc1    0.0
2                     CC(C)c1cccc(C(C)C)c1O    0.0
3  COP(=S)(OC)Oc1ccc(Sc2ccc(OP(=S)(OC)OC)cc2)cc1    1.0
4  C[C@H]1CCCC(=O)CCC/C=C/c2cc(O)cc(O)c2C(=O)O1    0.0

Let's switch to this compound now.
Hello, I am checking results. What call was entered for CC(C)(c1ccccc1)c1ccc(O)c(C(C)(C)c2ccccc2)c1 ?
0.0

###

- Read-out: Cytochrome P450 (CYP24A1), CYP24A1 (gene 1591)
- Experimental Protocol: LTEA_HepaRG_CYP24A1: Life Technologies and Expression Analysis (LTEA) Assay for Cytochrome P450 (CYP24A1) using HepaRG (AID 2283478)
- Study Conditions: mRNA level, 48 h; actives raise or lower the signal
- Method: LTEA_HepaRG is a cell based, multiplexed-readout assay that uses HepaRG, a human liver cell line, with measurements taken at 48 hours after chemical dosing on a 96-well plate.LTEA_HepaRG_CYP24A1 is one of 102 assay component(s) measured in the LTEA HepaRG cell culture assay. It is a marker of NR mediated metabolism.Data from the assay component LTEA_HepaRG_CYP24A1 was analyzed into 1 endpoint. […]
Active and inactive are the calls of the source. How the source made its calls: active means hit-call score of the fitted dose curve at least 0.9, where 1 is the maximum; inactive means score below 0.9.
Reported Metric: outcome

                               input_smiles     value
0     O=[N+]([O-])c1ccc(O)c([N+](=O)[O-])c1  inactive
1  O=C(Nc1ccc2[nH]ccc2c1)c1cc2cc(F)ccc2n1Cc1cccc(F)c1  inactive
2  CCN1CCC2(CC1)COc1cc3c(cc12)N(C(=O)c1ccc(-c2ccc(-c4nnc(C)o4)cc2C)cc1)CC3  inactive

###

- Experimental Protocol: STM_H9_OrnCyssISnorm_ratio: Stemina devTOX quickPredict H9 human embryonic stem cell (hESC)-based Assay for Ornithine (ORN):Cystine (CYSS) Ratio (AID 2283714)
Results filed as inconclusive are left out. Active and inactive are the calls of the source. How the source made its calls: active means hit-call score of the fitted dose curve at least 0.9, where 1 is the maximum; inconclusive means response in the unintended direction; inactive means score below 0.9.
Answer with one of the outcomes given here: 1.0 for active, 0.0 for inactive

In [3]: df
Out[3]:
                               input_smiles  label
0                   CC(=O)[O][Hg][c]1ccccc1    1.0
1  C=C(C)C(=O)[O][Sn]([CH2]CCC)([CH2]CCC)[CH2]CCC    1.0
2     O=[N+]([O-])c1ccc(O)c([N+](=O)[O-])c1    0.0

Let's switch to this molecule now.
Hello, I am checking results. What call was entered for CC(C)(C)c1cc(O)ccc1O ?
0.0

###

- Experimental Protocol: Tanguay_ZF_120hpf_JAW_legacy: (Legacy) Oregon State University Tanguay Lab 120 Hour Post-fertilization zebrafish Assay for Jaw Malformation (AID 2283638)
Inconclusive results are not listed. Calls of active or inactive are those of the source. The calls were made as follows: active = hit-call score of the fitted dose curve at least 0.9, where 1 is the maximum; inconclusive = response in the unintended direction; inactive = score below 0.9.
Answer with one of the outcomes given here: y (active), n (inactive)

                                   molecule  label
0                            Cn1sc(Cl)cc1=O      n
1                                Cc1ccccc1N      n
2  O=C(O)C(F)(F)C(F)(F)C(F)(F)C(F)(F)C(F)(F)C(F)(F)C(F)(F)C(F)(F)C(F)(F)C(F)(F)F      n
3               O=c1[nH]c(=O)[nH]c(=O)[nH]1      n
4  C[C@]12CCC(=O)C[C@@H]1CC[C@@H]1[C@@H]2CC[C@]2(C)[C@@H](O)CC[C@@H]12      n
5  ClC1(Cl)C2(Cl)C3(Cl)C4(Cl)C(Cl)(Cl)C5(Cl)C3(Cl)C1(Cl)C5(Cl)C24Cl (stereo unspecified)      n
6  CCC(=O)C(CC(C)N(C)C)(c1ccccc1)c1ccccc1 (stereo unspecified)      y
7  C[C@@H]1C[C@@H]([C@H](O)CC2CC(=O)NC(=O)C2)C(=O)[C@@H](C)C1      n

Hello, I am checking results. What call was entered for Oc1cccc2cccnc12 ?
n

Hello, I am checking results. What call was entered for O=C1C2(Cl)C3(Cl)C4(Cl)C(Cl)(Cl)C5(Cl)C3(Cl)C1(Cl)C5(Cl)C24Cl (stereo unspecified) ?
y

Hello, I am checking results. What call was entered for NC(=O)O ?
n

Hello, I am checking results. What call was entered for CN(C)N=O ?
n

Hello, I am checking results. What call was entered for CCCCCCCCc1ccc(O)cc1 ?
n

Hello, I am checking results. What call was entered for ClCC(Cl)CCl ?
n

Hello, I am checking results. What call was entered for O=C(O)C(F)(F)C(F)(F)C(F)(F)C(F)(F)C(F)(F)C(F)(F)F ?
n

Hello, I am checking results. What call was entered for O=[N+]([O-])c1ccc(O)c([N+](=O)[O-])c1 ?
n

Hello, I am checking results. What call was entered for CCOP(=S)(OCC)Oc1nc(Cl)c(Cl)cc1Cl ?
n

Hello, I am checking results. What call was entered for CCOP(=S)(OCC)SCSP(=S)(OCC)OCC ?
n

Hello, I am checking results. What call was entered for O=C(Nc1ccc2[nH]ccc2c1)c1cc2cc(F)ccc2n1Cc1cccc(F)c1 ?
n

Hello, I am checking results. What call was entered for C=CC(=O)OCCCCCC(C)C ?
n

Hello, I am checking results. What call was entered for CC(=O)[O][Hg][c]1ccccc1 ?
n

###

- Read-out: E-selectin (Homo sapiens)
- Experimental Protocol: BSK_3C_Eselectin: BioMAP Diversity Plus: 3C Assay for Eselectin Biomarker Activity (AID 2283015)
- Study Conditions: primary human endothelial cells (HUVEC); actives raise or lower the signal
The source made the active and inactive calls. The calls were made as follows: active = hit-call score of the fitted dose curve at least 0.9, where 1 is the maximum; inactive = score below 0.9.
Answer with one of the outcomes given here: True (active), False (inactive)

In [3]: df
Out[3]:
                           input_smiles  label
0  O=C(OC1CCCCC1)c1ccccc1C(=O)OC1CCCCC1   True

Hello, I am checking results. What call was entered for Oc1cccc2cccnc12 ?
True

Hello, I am checking results. What call was entered for COP(=S)(OC)Oc1c(Cl)cc(C)cc1Cl ?
True

Hello, I am checking results. What call was entered for CC(C)CCCCCCOC(=O)c1ccccc1C(=O)OCCCCCCC(C)C ?
False

Hello, I am checking results. What call was entered for CCOP(=S)(OCC)Oc1nc(Cl)c(Cl)cc1Cl ?
True

Hello, I am checking results. What call was entered for O=C(O)C(F)(F)C(F)(F)C(F)(F)C(F)(F)C(F)(F)C(F)(F)F ?
False

###

- Read-out: Plasminogen activator inhibitor-1 (PAI1), SERPINE1 (gene 5054)
- Experimental Protocol: BSK_hDFCGF_PAI1: BioMAP Diversity Plus: hDFCGF Assay for Plasminogen activator inhibitor-1 (PAI1) Biomarker Activity (AID 2283066)
- Study Conditions: primary human foreskin fibroblasts; actives raise or lower the signal
Activity calls are given as the source filed them. The calls were made as follows: active = hit-call score of the fitted dose curve at least 0.9, where 1 is the maximum; inactive = score below 0.9.
Answer with one of the outcomes given here: 1 = active, 0 = inactive

Consider the following illustrative entries.
>>> df
                               input_smiles  label
0  C=C(C)C(=O)[O][Sn]([CH2]CCC)([CH2]CCC)[CH2]CCC      1
1  ClC1=C(Cl)[C@]2(Cl)[C@H]3[C@H]([C@H]4C=C[C@H]3C4)[C@@]1(Cl)C2(Cl)Cl      1
2             COc1cc(-c2ccc(N)c(OC)c2)ccc1N      0
3                   C(=NC1CCCCC1)=NC1CCCCC1      1
4                                   NC(=O)O      0
5               O=c1[nH]c(=O)[nH]c(=O)[nH]1      0
6         COC[C@H](C)N(C(=O)CCl)c1c(C)csc1C      0
7               CCOP(=S)(OCC)SCCS(=O)(=O)CC      0

Let's switch to this compound now.
Hello, I am checking results. What call was entered for ClC(Cl)=C(Cl)C(Cl)=C(Cl)Cl ?
1
